Entries and their measured normalized growth follow.
ASSAY PROCEDURE: chemical genetic growth profiling, strain panel (AID 1159580);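 note: tested at 20 µM; growth read once vehicle control cultures reached saturation at 30 °C; 1 = growth at the plate median or of vehicle wells; lower values mean less growth of the strain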
REPORTED CONDITIONS: S. cerevisiae deletion strains, growth OD, locus YPR141C, strain kar3, hits give low values
Among all 5,500 compounds or so, about 2,000 (36%) were called active. Roughly 18% stayed inconclusive and do not appear here. This is one part of the list.
MEASUREMENT LABEL: normalized growth

>  <MOLECULE>
c1ccc2c(c1)sc1ccccc12

>  <REPORTED VALUE>
0.959

$$$$
>  <MOLECULE>
COc1ccc2c(c1)OC/C(=C\c1ccc(OC)c(O)c1)C2=O

>  <REPORTED VALUE>
0.924

$$$$
>  <MOLECULE>
COc1ccc2c(c1)OC1(O)COc3cc(OC)c(OC)cc3C1=C2 (stereo not given)

>  <REPORTED VALUE>
0.994

$$$$
>  <MOLECULE>
CC(=O)O[C@H]1C[C@@H](OC(C)=O)C(C)(C)C2CC(=O)[C@]3(C)C(CC[C@@]4(C)[C@H](C(=O)O)OC(=O)C5OC543)[C@]21C (stereo not given in full)

>  <REPORTED VALUE>
0.986

$$$$
>  <MOLECULE>
COc1ccc(OC)c(C(O)CNC(=O)CN)c1 (stereo not given)

>  <REPORTED VALUE>
0.966

$$$$
>  <MOLECULE>
COc1cc2c(cc1OC)C(=O)c1ccc(OC)c(OC)c1OCC(=O)C2

>  <REPORTED VALUE>
0.972

$$$$
>  <MOLECULE>
CCN1CCCC(OC(=O)C(c2ccccc2)c2ccccc2)C1 (stereo not given)

>  <REPORTED VALUE>
1

$$$$
>  <MOLECULE>
Cc1ncc(CNC(=O)N(CCCl)N=O)c(N)n1

>  <REPORTED VALUE>
0.987

$$$$
>  <MOLECULE>
COC(=O)[C@@H]1OC(=O)C2OC23[C@@]1(C)CCC1[C@]2(C)C(C[C@H](O)[C@]13C)C(C)(C)[C@H](OC(C)=O)C[C@@H]2OC(C)=O (stereo not given in full)

>  <REPORTED VALUE>
1.01

$$$$
>  <MOLECULE>
O=C1CCC(N2C(=O)c3ccccc3C2=O)C(=O)N1 (stereo not given)

>  <REPORTED VALUE>
0.988

$$$$

====

Entries and their measured normalized growth follow.
ASSAY PROCEDURE: chemical genetic growth profiling, strain panel (AID 1159580);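 note: tested at 20 µM; growth read once vehicle control cultures reached saturation at 30 °C; 1 = growth at the plate median or of vehicle wells; lower values mean less growth of the strain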
REPORTED CONDITIONS: S. cerevisiae deletion strains, growth OD, locus YNL067W, strain RPL9B, hits give low values
Out of some 5,500 compounds screened, about 2,000 (36%) were called active. About 18% were inconclusive and are not listed. The list shows a part of the results.
MEASUREMENT LABEL: normalized growth

>  <COMPOUND>
Clc1ccc(C(OCCN2CCCCC2)c2ccccc2)cc1 (stereo not given)

>  <MEASUREMENT LABEL>
normalized growth

>  <REPORTED VALUE>
0.98 (inactive)

$$$$
>  <COMPOUND>
COc1ccc(C(CN(C)C)C2(O)CCCCC2)cc1 (stereo not given)

>  <MEASUREMENT LABEL>
normalized growth

>  <REPORTED VALUE>
0.991 (inactive)

$$$$
>  <COMPOUND>
Cc1ccccc1C(OCCN(C)C)c1ccccc1 (stereo not given)

>  <MEASUREMENT LABEL>
normalized growth

>  <REPORTED VALUE>
0.994 (inactive)

$$$$
>  <COMPOUND>
CCCCCCCCC(=O)NCc1ccc(O)c(OC)c1

>  <MEASUREMENT LABEL>
normalized growth

>  <REPORTED VALUE>
0.995 (inactive)

$$$$
>  <COMPOUND>
CC(=O)S[C@@H]1CC2=CC(=O)CC[C@]2(C)[C@H]2CC[C@@]3(C)[C@@H](CC[C@@]34CCC(=O)O4)C12 (stereo not given in full)

>  <MEASUREMENT LABEL>
normalized growth

>  <REPORTED VALUE>
1.01 (inactive)

$$$$
>  <COMPOUND>
Clc1ccc(C(c2ccc(Cl)cc2)C(Cl)(Cl)Cl)cc1

>  <MEASUREMENT LABEL>
normalized growth

>  <REPORTED VALUE>
1.01 (inactive)

$$$$
>  <COMPOUND>
CCN(CC)C(=O)N1CCN(C)CC1

>  <MEASUREMENT LABEL>
normalized growth

>  <REPORTED VALUE>
1 (inactive)

$$$$
>  <COMPOUND>
CCN1CCCC(OC(=O)C(c2ccccc2)c2ccccc2)C1 (stereo not given)

>  <MEASUREMENT LABEL>
normalized growth

>  <REPORTED VALUE>
1.01 (inactive)

$$$$
>  <COMPOUND>
COc1ccc(C(c2ccc(OC)cc2)C(Cl)(Cl)Cl)cc1

>  <MEASUREMENT LABEL>
normalized growth

>  <REPORTED VALUE>
0.999 (inactive)

$$$$
>  <COMPOUND>
CN1CC(=O)N=C1N

>  <MEASUREMENT LABEL>
normalized growth

>  <REPORTED VALUE>
1.01 (inactive)

$$$$
